meta.source: the supplement of paper PMC9112550

# System: Escherichia coli TOP10;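 note: peptides expressed intracellularly from a pBAD plasmid library in pooled LB shake-flask culture, induced with 0.3% L-arabinose, DNA abundance read by NGS, three biological replicates, DESeq2 with apeglm shrinkage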
# assay remarks: shrunken log2 fold change of peptide-encoding DNA abundance (4.5 h post-induction vs induction); higher = less antimicrobial activity (less host growth inhibition)
# measurement context: time post-induction: 4.5 h; library: site-saturation at positions 5, 18, 19, 20
Known shrunken log2 fold change of a selection of sequences
Could you keep your reply to the number by itself?

Previously resolved entries follow.
polymer sequence	measured on	shrunken log2 fold change
RRIRPRPPRLPRPRPRPSMVPRP	Escherichia coli TOP10	-0.376
RRIRIRPPRLPRPRPRPGAPPRP	Escherichia coli TOP10	0.416

Alright, here's another sequence for you.
Could you please provide reported shrunken log2 fold change for RRIRSRPPRLPRPRPRPTMFPRP ? Thanks!
-0.0103
